All figures here come from patent US10206394B2.

System: Alopecurus myosuroides (ALOMY)
TEST_METHOD_NOTES: Glasshouse assay for herbicidal activity (pre- and post-emergence), percentage phytotoxicity
Type: in vivo
APPLIED_CONDITIONS: Alopecurus myosuroides, pre-emergence, 480 h, Rate 250 g/ha; pre-emergence; assessed visually 20 DAA; 100%=total damage, 0%=no damage; read-out: Pre-emergence herbicidal activity (percentage phytotoxicity) ALOMY PRE
ASSAY_METRIC: pest or weed control at 250 g/ha (%)
Numbers only, in %.

# COMPOUND, STUDY_SYSTEM, UNITS_LABEL, pest or weed control at 250 g/ha
records = [
    ("CCC(C)(C)NC(=O)CC1CC(=O)C(c2c(C)cc(C)cc2C)C1=O (stereo not drawn)", "Alopecurus myosuroides (ALOMY)", "%", 70),
    ("CC#Cc1cc(C)c(C2C(=O)CC(CC(=O)NC3CCCC3)C2=O)c(CC)c1 (stereo not drawn)", "Alopecurus myosuroides (ALOMY)", "%", 100),
    ("Cc1cc(C)c(C2C(=O)CC(CC(=O)NC(C)(C)C)C2=O)c(C)c1 (stereo not drawn)", "Alopecurus myosuroides (ALOMY)", "%", 80),
]

Quick batch: pest or weed control at 250 g/ha for everything below.
1. COCC(C)NC(=O)CC1CC(=O)C(c2c(C)cc(C)cc2C)C1=O (stereo not drawn)
2. Cc1cc(-n2cc(Cl)cn2)cc(C)c1C1C(=O)CC(CC(=O)NC(C)(C)C)C1=O (stereo not drawn)
3. COCC#CC(C)(C)NC(=O)CC1CC(=O)C(c2c(C)cc(C)cc2C)C1=O (stereo not drawn)

1. 90
2. 100
3. 90

Quick batch: pest or weed control at 250 g/ha for everything below.
1. COCCNC(=O)CC1CC(=O)C(c2c(C)cc(-c3ncc(Cl)cc3F)cc2C)C1=O (stereo not drawn)
2. CC#Cc1cc(C)c(C2C(=O)CC(CC(=O)NCc3cnc(C)cn3)C2=O)c(C)c1 (stereo not drawn)
3. Cc1cc(-c2ccc(C#N)cc2F)cc(C)c1C1C(=O)CC(CC(=O)NC(C)C)C1=O (stereo not drawn)
4. Cc1cc(-c2ccc(Cl)cn2)cc(C)c1C1C(=O)CC(CC(=O)NCc2cccc(C(F)(F)F)c2)C1=O (stereo not drawn)

[100, 80, 80, 80]

###

Test system: Lolium perenne (LOLPE)
TEST_METHOD_NOTES: Glasshouse assay for herbicidal activity (pre- and post-emergence), percentage phytotoxicity
Type: in vivo
APPLIED_CONDITIONS: Lolium perenne, post-emergence, 360 h, POST-emergence, rate 250 g/ha, visual score 15 DAA (100%=total damage, 0%=no damage); read-out: Post-emergence herbicidal activity (percentage phytotoxicity) LOLPE POST
Protocol: Test—Glasshouse Assay for Herbicidal Activity Seeds of a variety of monocotyledonous and dicotyledonous test plants are sown in standard soil in pots. The plants are cultivated for one day (for pre-emergence (PRE)) or for about 12 days (for post-emergence (POST)) under controlled conditions in a glasshouse (warm climate species at 24/18° C., cool climate species at 20/16° C., both at day/night; 16 hours light; 65% humidity). […]
Give pest or weed control at 250 g/ha for every item shown.
One number for each entry, in %.

In the examples that follow, each entry is paired with its recorded pest or weed control at 250 g/ha.
# MOLECULE, pest or weed control at 250 g/ha (%)
measured = [
    ("C/C=C/c1cc(C)c(C2C(=O)CC(CC(=O)NC(C)C)C2=O)c(CC)c1 (stereo not shown) [Compound B192]", 100),
    ("COc1ccc(CNC(=O)CC2CC(=O)C(c3c(C)cc(-c4ncc(F)cn4)cc3C)C2=O)cc1 (stereo not shown) [Compound B271]", 90),
    ("CCc1cc(C)cc(C)c1C1C(=O)CC(CC(=O)NC(C)C)C1=O (stereo not shown) [Compound B255]", 100),
    ("CCc1cc(-n2cc(Cl)cn2)cc(C)c1C1C(=O)CC(CC(=O)NCc2cccc(Cl)c2)C1=O (stereo not shown) [Compound B231]", 90),
    ("C/C=C/c1cc(C)c(C2C(=O)CC(CC(=O)NCc3ccc(C#N)cc3)C2=O)c(C)c1 (stereo not shown) [Compound B244]", 60),
    ("Cc1cc(-c2ncc(F)cc2F)cc(C)c1C1C(=O)CC(CC(=O)N(C)C(C)(C)C)C1=O (stereo not shown) [Compound B267]", 100),
    ("Cc1cc(-c2ncc(Cl)cc2F)cc(C)c1C1C(=O)CC(CC(=O)NCC(C)(C)C)C1=O (stereo not shown) [Compound B178]", 100),
    ("C#CCN(C)C(=O)CC1CC(=O)C(c2c(C)cc(C)cc2CC)C1=O (stereo not shown) [Compound B260]", 100),
]

Quick batch: pest or weed control at 250 g/ha for everything below.
1. CCc1cc(-n2cc(Cl)cn2)cc(C)c1C1C(=O)CC(CC(=O)NCc2ccc(C#N)cc2)C1=O (stereo not shown) [Compound B234]
2. COc1ccc(CNC(=O)CC2CC(=O)C(c3c(C)cc(-n4cc(Cl)cn4)cc3C)C2=O)cc1 (stereo not shown) [Compound B224]
3. CCc1cc(C)cc(C)c1C1C(=O)CC(CC(=O)NCc2cccc(Cl)c2)C1=O (stereo not shown) [Compound B251]
4. Cc1cc(-c2ncc(F)cc2F)cc(C)c1C1C(=O)CC(CC(=O)NC2CC2F)C1=O (stereo not shown) [Compound B289]
5. C=C(F)CNC(=O)CC1CC(=O)C(c2c(C)cc(-c3ncc(F)cc3F)cc2C)C1=O (stereo not shown) [Compound B304]
6. Cc1cc(OCC(F)(F)F)cc(C)c1C1C(=O)CC(CC(=O)NCc2cccc(Cl)c2)C1=O (stereo not shown) [Compound B204]
7. CCc1cc(OCC(F)(F)F)cc(C)c1C1C(=O)CC(CC(=O)NCc2cccc(Cl)c2)C1=O (stereo not shown) [Compound B261]

[80, 80, 100, 100, 100, 90, 100]

Reported pest or weed control at 250 g/ha of C/C=C/c1cc(C)c(C2C(=O)CC(CC(=O)NC(C)(C)C)C2=O)c(C)c1 (stereo not shown) [Compound B173] : 80
